Molecular target: TLR7 (Homo sapiens, UniProt Q9NYK1)
Sequence (Q9NYK1 27-1049): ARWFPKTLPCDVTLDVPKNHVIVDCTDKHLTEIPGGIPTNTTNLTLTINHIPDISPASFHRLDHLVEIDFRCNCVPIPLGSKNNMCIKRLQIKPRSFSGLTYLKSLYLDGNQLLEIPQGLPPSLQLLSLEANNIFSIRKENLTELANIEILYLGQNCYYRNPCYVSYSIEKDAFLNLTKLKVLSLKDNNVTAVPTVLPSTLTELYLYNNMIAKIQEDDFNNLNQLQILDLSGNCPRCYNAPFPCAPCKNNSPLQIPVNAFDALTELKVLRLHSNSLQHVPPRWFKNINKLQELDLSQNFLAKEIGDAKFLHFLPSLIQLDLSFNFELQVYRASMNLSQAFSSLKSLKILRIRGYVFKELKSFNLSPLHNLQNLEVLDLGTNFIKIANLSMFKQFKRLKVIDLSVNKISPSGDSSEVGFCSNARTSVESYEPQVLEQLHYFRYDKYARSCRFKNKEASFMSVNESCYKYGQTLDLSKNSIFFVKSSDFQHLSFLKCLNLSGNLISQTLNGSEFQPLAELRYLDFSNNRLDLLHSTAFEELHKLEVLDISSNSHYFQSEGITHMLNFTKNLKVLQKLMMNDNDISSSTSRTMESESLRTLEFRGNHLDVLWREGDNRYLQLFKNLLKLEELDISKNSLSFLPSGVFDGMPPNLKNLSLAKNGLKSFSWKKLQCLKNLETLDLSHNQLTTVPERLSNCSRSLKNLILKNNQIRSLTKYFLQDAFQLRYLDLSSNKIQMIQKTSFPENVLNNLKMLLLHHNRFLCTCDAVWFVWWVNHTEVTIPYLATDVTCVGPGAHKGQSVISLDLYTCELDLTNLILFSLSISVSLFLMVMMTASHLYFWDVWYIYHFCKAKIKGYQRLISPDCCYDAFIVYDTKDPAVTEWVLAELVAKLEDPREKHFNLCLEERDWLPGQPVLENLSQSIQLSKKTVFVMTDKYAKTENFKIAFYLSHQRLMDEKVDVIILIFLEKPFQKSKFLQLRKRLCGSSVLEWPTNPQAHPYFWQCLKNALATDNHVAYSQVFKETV
Experiment: NFκB-luciferase reporter assay in HEK293 cells transfected with human TLR7 (HEK293-TLR7)
Format: cell-based
Set-up: expressed in transfected cells; host or cells: HEK293 (ATCC CRL-1573), pIRES vector, G-418 selected
Details: HEK293-TLR7, 10 μM IRM, 16 hours
Measurement label: TLR7: fold increase of NFκB-induced luciferase signal compared to a DMSO control (fold increase)
# number only, unit fold increase dropped from output

>  <Molecule>
CCOCc1nc2c(N)nc3ccccc3c2n1CC(C)C

>  <Unit text>
fold increase

>  <Experimental result>
4.05

$$$$
>  <Molecule>
Cc1nc2c(N)nc3ccccc3c2n1CCOCc1ccccc1

>  <Unit text>
fold increase

>  <Experimental result>
4.98

$$$$
>  <Molecule>
CCOCc1nc2c(N)nc3ccccc3c2n1CCNC(=O)Nc1cccc(C#N)c1

>  <Unit text>
fold increase

>  <Experimental result>
0.92

$$$$
>  <Molecule>
Cc1nc2c(N)nc3ccccc3c2n1CCOCCCc1cccnc1

>  <Unit text>
fold increase

>  <Experimental result>
4.16

$$$$
>  <Molecule>
CCc1nc2c(N)nc3ccccc3c2n1CCCCS(=O)(=O)c1cc(Cl)cc(Cl)c1

>  <Unit text>
fold increase

>  <Experimental result>
4.22

$$$$
>  <Molecule>
CCCCc1nc2c(N)nc3cccnc3c2n1CCNC(=O)C(N)CC(C)C (stereo not drawn)

>  <Unit text>
fold increase

>  <Experimental result>
0.64

$$$$
>  <Molecule>
CCc1nc2c(N)nc3ccccc3c2n1CCCCSc1cc(Cl)cc(Cl)c1

>  <Unit text>
fold increase

>  <Experimental result>
0.67

$$$$
>  <Molecule>
CCc1nc2c(N)nc3ccccc3c2n1CCOCCNC(=O)Nc1ccccc1

>  <Unit text>
fold increase

>  <Experimental result>
0.86

$$$$
>  <Molecule>
CCCCc1nc2c(N)nc3ccccc3c2n1CCNS(=O)(=O)CCC

>  <Unit text>
fold increase

>  <Experimental result>
1.16

$$$$
>  <Molecule>
CCOCc1nc2c(N)nc3c(c2n1CC(C)(C)O)CCCC3

>  <Unit text>
fold increase

>  <Experimental result>
5.54

$$$$

With those in mind, consider the next molecule.
Query: TLR7: fold increase of NFκB-induced luciferase signal compared to a DMSO control; subject: CCCCc1nc2c(N)nc3ccccc3c2n1CCCCCS(C)(=O)=O 8.46
